Tested on: OVCAR-5
Experiment Summary: Growth inhibition of human OVCAR5 cells after 48 hrs by sulforhodamine B assay
Assay type: functional
Measurement Setup: OVCAR-5, 48 h
Recorded Metric: GI50

Prompt: Consider the molecule C[C@H]1[C@@H](OCCCO[C@H]2O[C@@H]3O[C@@]4(C)CC[C@H]5[C@H](C)CC[C@@H]([C@H]2C)[C@@]35OO4)O[C@@H]2O[C@@]3(C)CC[C@H]4[C@H](C)CC[C@@H]1[C@@]24OO3 . State its measured GI50.
Response: > 100000 nM

Prompt: Consider the molecule C[C@H]1[C@@H](OCC(CO[C@H]2O[C@@H]3O[C@@]4(C)CC[C@H]5[C@H](C)CC[C@@H]([C@H]2C)[C@@]35OO4)OC(=O)CCC(=O)O)O[C@@H]2O[C@@]3(C)CC[C@H]4[C@H](C)CC[C@@H]1[C@@]24OO3 (stereo partly drawn) . State its measured GI50.
Response: < 10 nM

Prompt: Consider the molecule C[C@H]1[C@@H](OCC(=O)CO[C@H]2O[C@@H]3O[C@@]4(C)CC[C@H]5[C@H](C)CC[C@@H]([C@H]2C)[C@@]35OO4)O[C@@H]2O[C@@]3(C)CC[C@H]4[C@H](C)CC[C@@H]1[C@@]24OO3 . State its measured GI50.
Response: < 10 nM

----------
System: MDA-MB-231
Experiment Summary: Growth inhibition of human MDA-MB-231 cells after 48 hrs by sulforhodamine B assay
Format: functional
Measurement Setup: MDA-MB-231, 48 h
Would you mind telling me the reported GI50 of each entry?
Answer format: numeric, µM implied, no suffix.

Prompt: Consider the compound C[C@H]1[C@@H](OCC(O)CO[C@@H]2C[C@@H]3CC[C@@H](C)[C@@H]4CC[C@@]5(C)OO[C@@]34[C@H](O2)O5)O[C@@H]2O[C@@]3(C)CC[C@H]4[C@H](C)CC[C@@H]1[C@@]24OO3 (stereo not given in full) . State its measured GI50.
Response: 45.8

Prompt: Consider the compound C[C@H]1[C@@H](OCCO[C@H]2O[C@@H]3O[C@@]4(C)CC[C@H]5[C@H](C)CC[C@@H]([C@H]2C)[C@@]35OO4)O[C@@H]2O[C@@]3(C)CC[C@H]4[C@H](C)CC[C@@H]1[C@@]24OO3 . State its measured GI50.
Response: 15

Prompt: Consider the compound COCC(CO[C@H]1O[C@@H]2O[C@@]3(C)CC[C@H]4[C@H](C)CC[C@@H]([C@H]1C)[C@@]24OO3)O[C@H]1O[C@@H]2O[C@@]3(C)CC[C@H]4[C@H](C)CC[C@@H]([C@H]1C)[C@@]24OO3 (stereo not given in full) . State its measured GI50.
Response: 13.1

Prompt: Consider the compound C[C@H]1[C@@H](OCC(=O)CO[C@H]2O[C@@H]3O[C@@]4(C)CC[C@H]5[C@H](C)CC[C@@H]([C@H]2C)[C@@]35OO4)O[C@@H]2O[C@@]3(C)CC[C@H]4[C@H](C)CC[C@@H]1[C@@]24OO3 . State its measured GI50.
Response: 3.33

Prompt: Consider the compound C[C@H]1[C@@H](OCC(CO[C@H]2O[C@@H]3O[C@@]4(C)CC[C@H]5[C@H](C)CC[C@@H]([C@H]2C)[C@@]35OO4)OC(=O)CCC(=O)O)O[C@@H]2O[C@@]3(C)CC[C@H]4[C@H](C)CC[C@@H]1[C@@]24OO3 (stereo not given in full) . State its measured GI50.
Response: 0.345

----------
Experiment Summary: Selectivity index, ratio of TC50 for african green monkey (Cercopithecus aethiops) Vero cells to IC50 for chloroquine-resistant Plasmodium falciparum W2
Type: toxicity, cell-based
Recorded Metric: selectivity ratio

Prompt: Consider the molecule C[C@H]1[C@@H](O[C@H]2CC[C@@H](O[C@H]3O[C@@H]4O[C@@]5(C)CC[C@H]6[C@H](C)CC[C@@H]([C@H]3C)[C@@]46OO5)CC2)O[C@@H]2O[C@@]3(C)CC[C@H]4[C@H](C)CC[C@@H]1[C@@]24OO3 . State its measured selectivity ratio.
Response: > 915

Prompt: Consider the molecule C[C@@H]1CC[C@H]2[C@@H](C)C(=O)O[C@@H]3O[C@@]4(C)CC[C@@H]1[C@]32OO4 . State its measured selectivity ratio.
Response: > 106

Prompt: Consider the molecule C[C@H]1[C@H](OCCCCO[C@H]2O[C@@H]3O[C@@]4(C)CC[C@H]5[C@H](C)CC[C@@H]([C@H]2C)[C@@]35OO4)O[C@@H]2O[C@@]3(C)CC[C@H]4[C@H](C)CC[C@@H]1[C@@]24OO3 . State its measured selectivity ratio.
Response: > 54
